Molecular target: E. coli SPase (Escherichia coli, UniProt P00803)
Construct: Full length His-tagged E. coli SPase proteins; His; made in house; host or cells: E. coli BL21(DE3)
Sequence (P00803 whole entry): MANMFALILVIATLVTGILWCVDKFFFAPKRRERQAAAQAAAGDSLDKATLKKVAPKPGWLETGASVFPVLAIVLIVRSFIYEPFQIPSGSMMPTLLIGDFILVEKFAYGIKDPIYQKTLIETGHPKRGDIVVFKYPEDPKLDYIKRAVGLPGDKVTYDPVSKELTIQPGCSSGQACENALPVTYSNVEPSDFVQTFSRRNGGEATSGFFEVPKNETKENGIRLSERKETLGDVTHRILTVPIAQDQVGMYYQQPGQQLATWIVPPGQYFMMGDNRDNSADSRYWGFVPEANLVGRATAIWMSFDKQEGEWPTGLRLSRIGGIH
Test: Biochemical SPase activity assay, fluorogenic peptide substrate, E. coli enzyme
Conditions: 20 μM substrate, 10 minutes preincubation, read-out: IC 50 (nM) E. coli
Method: Full length His-tagged E. coli SPase proteins were expressed in E. coli BL21(DE3) containing the plasmid pET23-lepB. […] Signal peptidase enzyme activity of the above proteins was measured using two fluorogenic peptide substrates (decanoyl-LSSPAYNO2A ? ADKabzPD and decanoyl-LTPTAYNO2A ? ASKKabzDD), where abz is the fluorescence donor 2-aminobenzamide, YNO2 is the fluorescence acceptor 3-nitrotyrosine, and the cleavage site is indicated with an arrow. […]
*1 amine or outer side, *2 acyl side, *3 side chain or, on linkers, in order; H or OH if unused. Where a SMILES comes first, the peptide text is derived from it. [ ]: non-standard residue; d: D form. The star is where a group is joined. boroAla((+)-pinanediol) = C[C@H](N*)B1O[C@@H]2C[C@@H]3C[C@@H](C3(C)C)[C@]2(C)O1; Biphenylcarbonyl(4'-Bu) = CCCCc1ccc(-c2ccc(C(=O)*)cc2)cc1; Benzoyl(4-(4-Cl-Ph)) = O=C(c1ccc(-c2ccc(Cl)cc2)cc1)*; X10 = O=C(c1ccc(-c2ccc(Cl)cc2)nc1)*; X1 = C[C@H](N[*:1])C(=O)C(=O)[*:2]; X8 = NCCCCCCCCCCCCC(=O)*; Dab = NCC[C@H](N)C(=O)O; Dap = NC[C@H](N)C(=O)O; X13 = COCCCN*; CH2Cl = ClC*
Measurement Kind: IC50 (nM)
Your answer is read as nM, so omit the unit and give the number.

Below: 6 molecules and their reported IC50.
CC(=O)N[C@@H](CCN)C(=O)N[C@H](C(=O)N[C@@H](C)C(=O)N[C@@H](CCCCN)C(=O)N[C@@H](C)B1O[C@@H]2C[C@@H]3C[C@@H](C3(C)C)[C@]2(C)O1)[C@@H](C)O [Compound 113] (Ac-[Dab]TAK-{boroAla((+)-pinanediol)})
5700
C[C@H](NC(=O)[C@H](CCCCN)NC(=O)[C@H](C)NC(=O)[C@@H](NC(=O)[C@H](CCN)NC(=O)c1ccc(-c2ccc(Cl)cc2)nc1)[C@@H](C)O)B1O[C@@H]2C[C@@H]3C[C@@H](C3(C)C)[C@]2(C)O1 [Compound 118] (X10-[Dab]TAK-{boroAla((+)-pinanediol)})
15
CCNC(=O)C(=O)[C@H](C)NC(=O)[C@H](CCCCN)NC(=O)[C@H](C)NC(=O)[C@@H](NC(=O)[C@H](CN)NC(=O)c1ccc(-c2ccc(Cl)cc2)cc1)[C@@H](C)O [Compound 102] ({Benzoyl(4-(4-Cl-Ph))}-[Dap]TAK[X1]-NHEt)
440
COCCCNC(=O)C(=O)[C@H](C)NC(=O)[C@H](CCCCN)NC(=O)[C@H](C)NC(=O)[C@@H](NC(=O)[C@H](CN)NC(=O)c1ccc(-c2ccc(Cl)cc2)cc1)[C@@H](C)O [Compound 101] ({Benzoyl(4-(4-Cl-Ph))}-[Dap]TAK[X1]-X13)
870
CCCCc1ccc(-c2ccc(C(=O)N[C@@H](CCN)C(=O)N[C@H](C(=O)N[C@@H](C)C(=O)N[C@@H](CCCCN)C(=O)N[C@@H](C)C(=O)CCl)[C@@H](C)O)cc2)cc1 [Compound 211] ({Biphenylcarbonyl(4'-Bu)}-[Dab]TAKA-CH2Cl)
380
COC(=O)CNC(=O)C(=O)[C@H](C)NC(=O)[C@H](CCCCN)NC(=O)[C@H](C)NC(=O)[C@@H](NC(=O)[C@H](CN)NC(=O)c1ccc(-c2ccc(Cl)cc2)cc1)[C@@H](C)O [Compound 111] ({Benzoyl(4-(4-Cl-Ph))}-[Dap]TAK[X1]G-OMe)
360

Field: next molecule
Challenge: What reported IC50 corresponds to C[C@H](NC(=O)[C@H](CCCCN)NC(=O)[C@H](C)NC(=O)[C@@H](NC(=O)[C@H](CCN)NC(=O)CCCCCCCCCCCCN)[C@@H](C)O)B1O[C@@H]2C[C@@H]3C[C@@H](C3(C)C)[C@]2(C)O1 [Compound 115] (X8-[Dab]TAK-{boroAla((+)-pinanediol)}) on E. coli SPase (Escherichia coli, UniProt P00803)?
Response given: 330

This collection of values is drawn from patent US20160194358A1.
